target: human orexin 2 receptor (Homo sapiens, UniProt O43614); construct: CHO-K1 cells stably expressing the full-length human orexin 2 receptor and the aequorin photoprotein; expressed in transfected cells; host or cells: CHO-K1 (CHO-K1/hOx2); assay: Assay B: in vitro testing of OX2R potency, OX2R IP1; format: cell-based; settings: Table 4a; 0.5 nM Orexin A
Sequence (O43614 whole entry): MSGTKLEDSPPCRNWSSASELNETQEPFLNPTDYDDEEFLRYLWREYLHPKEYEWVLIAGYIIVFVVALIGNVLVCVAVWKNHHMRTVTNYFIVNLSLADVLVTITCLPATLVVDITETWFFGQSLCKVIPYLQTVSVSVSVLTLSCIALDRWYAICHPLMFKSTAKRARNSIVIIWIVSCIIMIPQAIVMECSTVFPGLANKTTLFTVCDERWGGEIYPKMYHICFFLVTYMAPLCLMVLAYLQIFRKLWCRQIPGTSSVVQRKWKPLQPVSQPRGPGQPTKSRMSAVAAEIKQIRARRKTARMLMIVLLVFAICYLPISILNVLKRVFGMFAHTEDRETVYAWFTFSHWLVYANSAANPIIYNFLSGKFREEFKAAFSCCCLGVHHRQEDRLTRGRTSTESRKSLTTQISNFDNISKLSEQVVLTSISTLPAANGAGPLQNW
Please note: Criterion met applies when Kb is 30 nM or greater, and Criterion not met applies otherwise.

compound	assigned-label
CC[C@@H](CNc1ccc(C(F)(F)F)cn1)N(CC)C(=O)c1nc(C)ccc1-n1nccn1 [Ex 71 in WO2016/ 034882, reference compound]	Criterion not met
CC[C@@H](CNc1ccc(C(F)(F)F)cn1)N(C)C(=O)c1cc(Cl)ccc1-n1nccn1 [Ex 42 in WO2016/ 034882, reference compound]	Criterion met
CCN(C(=O)c1cccc(F)c1-n1nccn1)[C@@H](C)CNc1ccc(F)c(C(F)(F)F)n1	Criterion not met
CC[C@@H](CNc1ccc(Cl)cn1)N(C)C(=O)c1cc(C)ccc1-n1nccn1 [Ex 1 in WO2016/ 034882, reference compound]	Criterion met
CCN(C(=O)c1nccc(C(F)(F)F)c1-c1ccn(C)n1)[C@@H](C)COc1ccc(C(F)(F)F)cn1	Criterion not met
CCN(C(=O)c1cc(C)ccc1-n1nccn1)[C@@H](C)CN(C)c1ccc(Cl)cn1	Criterion not met
CCN(C(=O)c1cccc(F)c1-c1ncccn1)[C@@H](C)CNc1ccc(C(F)(F)F)cn1	Criterion not met
